- TARGET ENTITY: human glucagon receptor (GCGR) (Homo sapiens (Human), UniProt P47871)
- Sequence (P47871 26-477): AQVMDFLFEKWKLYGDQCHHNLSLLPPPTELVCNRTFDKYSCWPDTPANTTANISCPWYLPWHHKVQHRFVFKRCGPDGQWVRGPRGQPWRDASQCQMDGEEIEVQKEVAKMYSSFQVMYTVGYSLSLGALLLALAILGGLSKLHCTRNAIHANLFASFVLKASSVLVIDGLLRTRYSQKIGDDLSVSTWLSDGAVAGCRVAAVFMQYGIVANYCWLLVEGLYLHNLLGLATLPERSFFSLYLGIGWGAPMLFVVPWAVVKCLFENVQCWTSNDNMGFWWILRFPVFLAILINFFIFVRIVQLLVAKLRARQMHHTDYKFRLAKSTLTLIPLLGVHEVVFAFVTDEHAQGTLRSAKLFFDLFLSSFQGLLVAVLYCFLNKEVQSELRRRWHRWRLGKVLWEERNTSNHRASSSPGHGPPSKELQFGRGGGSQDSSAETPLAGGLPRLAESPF
- METHOD SUMMARY: Inhibition of 125I-glucagon binding to membranes from HEK293 cells expressing the human glucagon receptor
- MEASUREMENT CONDITIONS: membranes of hGluc-1 HEK cells, 125I-glucagon 0.3 nM, 2 hours room temperature; IC50 converted to Ki; average if tested more than once
- Method: Inhibition ^125I-Glucagon Binding to Membranes from HEK293 Cells Expressing the Human Glucagon Receptor (GCGR) Full-length human GCGR (Accession Number: NM000160) subcloned into pcDNA3.1 was stably transfected into HEK293 cells (hGluc-1 HEK) and maintained under G418 selection (500 μg/mL). Cell cultures were maintained in DMEM/F12 media supplemented with 10% FBS and 1% GlutaMax. […] Total counts retained by the filters were quantified with a Top Count instrument. […]
The following compounds are listed with their measured Ki values.
Field: numeric (nM). Do not append units.

Use the examples below as a reference point.
Cc1ccc(CNc2ccc(-c3ccc(Cl)cc3)cc2)c(-c2ccc(C(=O)NCCC(=O)O)nc2)c1 [Compound 68]
40
O=C(O)CCNC(=O)c1ccc(-c2cc(C(F)(F)F)ccc2CNc2ccc(-c3ccc(F)cc3Cl)cc2)cn1 [Compound 23]
26.1
O=C(O)CCNC(=O)c1ccc(-c2cc(Cl)ccc2CNc2ccc(-c3cccc(C(F)(F)F)c3)cc2)cn1 [Compound 130]
62.6

Qu. Quick one: Ki for Cc1cc(-c2ccc(NCc3ccc(Cl)cc3-c3ccc(C(=O)NCCC(=O)O)nc3)cc2)ccc1F [Compound 146] ?
Ans. 28.1

Qu. Quick one: Ki for O=C(O)CCNC(=O)c1ccc(-c2cc(Cl)ccc2CNc2ccc(-c3cccc(F)c3)cc2)cn1 [Compound 134] ?
Ans. 38.3

###

- TARGET ENTITY: human GCGR (Homo sapiens (Human), UniProt P47871)
- Sequence (P47871 26-477): as above
- METHOD SUMMARY: Cellular functional assay, cAMP readout (glucagon-stimulated cAMP in HEK293 cells expressing human GCGR)
- Format: cell-based
- MEASUREMENT CONDITIONS: hGluc-1 HEK cells, LANCE TR-FRET, IC50 converted to Ki, average if tested more than once
OBSERVABLE: pKi
Please note pKi is a logarithmic value: minus log10 of concentration in mol/L. Answer with that number alone.

Use the examples below as a reference point.
O=C(O)CCNC(=O)c1ccc(-c2cc(F)c(F)cc2C(=O)Nc2ccc(-c3ccc(Cl)cc3Cl)cc2)cn1 [Compound 94]
7.11
Cc1cc(NCc2c(Cl)cc(C(F)(F)F)cc2-c2ccc(C(=O)NCCC(=O)O)nc2)ccc1-c1ccc(Cl)cc1 [Compound 75]
8.17
O=C(O)CCNC(=O)c1ccc(-c2cc(Cl)ccc2CNc2ccc(-c3ccc(F)cc3C(F)(F)F)cc2)cn1 [Compound 149]
6.37
O=C(O)CCNC(=O)c1ccc(-c2cc(-c3ccccc3)ccc2CNc2ccc(-c3ccc(Cl)cc3Cl)cc2)cn1 [Compound 173]
7.17
O=C(O)CCNC(=O)c1ccc(-c2ccccc2CNc2ccc(-c3ccc(Cl)c(Cl)c3)cc2)cn1 [Compound 8]
6.25

Qu. # value lookup — system human GCGR (Homo sapiens (Human), UniProt P47871), readout pKi, item O=C(O)CCNC(=O)c1ccc(-c2cc(Cl)ccc2CNc2ccc(-c3ccc(Cl)cc3)c(Cl)c2)cn1 [Compound 10]
Ans. 6.96

Qu. # value lookup — system human GCGR (Homo sapiens (Human), UniProt P47871), readout pKi, item O=C(O)CCNC(=O)c1ccc(-c2cc(C3=CCCCC3)ccc2CNc2ccc(-c3ccc(F)cc3)cc2)cn1 [Compound 174]
Ans. 6.96
